Assign TGI to each entry below.
- Test system: MOLT-4 leukemia
- Procedure Details: NCI tumour cell line growth inhibition, 48 h

What measured TGI is associated with O=[N+]([O-])c1ccc(C2=NOC(c3ccccc3F)N2C23CC4CC(CC(C4)C2)C3)cc1 (stereo not drawn) on MOLT-4 leukemia?
> 100 µM

Input O=c1[nH]c(=O)n(C2CC(O)C(CO)O2)cc1OCCCc1ccccc1 (stereo not drawn)
> 100 µM

Then this compound: `COc1cc(CCCOC(=O)/C=C/c2ccc(O)c(O)c2)cc(O)c1O`
> 100 µM

Also COc1cccc(C2C(C#N)=C(N)Oc3cc(N)ccc32)c1 (stereo not drawn) ?
> 52.3 µM

Please give the result for CC1(c2nc3cc(Cl)c(Cl)cc3[nH]2)CCC(CO)C(C)(C)O1 (stereo not drawn) too.
> 100 µM

Now the compound CCCCC(C)C1CCC2(C)C=CC(=O)C(C)=C2C1O (stereo not drawn)
> 100 µM

Now this one: `COc1cc2c(cc1OC)-c1cc3cc(OC)c(OC)cc3n1CC2`
> 100 µM

# repeat for `N#CCCN(CCC#N)c1ccc(C(N=Nc2ccccc2)=Nc2ccccc2)cc1`
> 100 µM

Ok, now CCC1=CC2CN3CCc4c([nH]c5ccccc45)C(C(=O)OC)(C2)C13 (stereo not drawn)
181 µM

For CC1C[C@H](OC(N)=O)C(C)CC1=O (stereo partly drawn) then?
> 100 µM

Next compound up: NC(=O)N1N=C2c3ccccc3CC[C@@H]2C1c1ccccc1 (stereo partly drawn)
> 100 µM

Query `C/C(=N\NC(=O)c1ccncc1)c1ccc2ccccc2c1O` next
40.3 µM

Same again, this time with `CC(=O)Nc1ccc(Sc2ccc([N+](=O)[O-])o2)cc1`
6.42 µM
